assay details: gradient 5% acetonitrile 3 min, to 50% in 2 min, to 85% in 15 min, held 3 min, 100 µL/min
condition info: column: Zorbax Extend-C18 2.1 x 50 mm; eluents: water / acetonitrile, 0.1% formic acid
Kindly note that classification relies on RP-LC retention time with these boundaries: low band = under 700 s, middle band = from 700 s up to 800 s, high band = 800 s and over

compound | class name
COc1ccc(C)cc1NC(=O)N1CCN(c2ccc(-c3ccc4c(c3)OCO4)nn2)CC1 | low band
CCn1c(=O)c(=O)n(CC(=O)NC2CCCCCC2)c2cccnc21 | middle band
CN(CC1CCOC1)C(=O)Nc1cccc(Cl)c1 (centres undefined) | middle band
COC(=O)c1ccc(-c2nc3cnccn3c2Nc2cccc(Cl)c2C)cc1 | high band
Cc1cc(=O)n(CC(=O)Nc2ccc(Cl)cc2)c(-c2ccc(F)cc2)n1 | high band
CSc1ccc(CNC(=O)C2CCCN(c3ccnc(-c4ccc(F)cc4)n3)C2)cc1 (centres undefined) | middle band
CCn1ncn2cc(S(=O)(=O)NCc3ccc(Cl)cc3)cc2c1=O | high band
O=C(NC1CCCN(c2cc(-c3ccc(Cl)cc3)[nH]n2)C1)c1ccc2[nH]ccc2c1 (centres undefined) | high band
CCOCCCNC(=O)N1CCN(c2nc3ccccc3n(Cc3ccccc3)c2=O)CC1 | high band
C[C@@H](O)[C@H]1C(=O)N2C(C(=O)OCOC(=O)C(C)(C)C)=C(SC3CN(C4=NCCS4)C3)[C@H](C)[C@H]12 | middle band
CC(C)NC(=O)c1c2c(nc3ccccc13)CCC2 | low band
Cc1cc(CN2CCC(CNC(=O)c3ccc(S(=O)(=O)N(C)C)cc3)CC2)c(C)o1 | low band
CC(C)N1CCC(CNC(=O)c2cccc3ccccc23)CC1 | low band
Cn1ncc2c3ccccc3n(CCCC(=O)NCCN3CCCCCC3)c2c1=O | low band
Cc1cc(N2CCN(C)CC2)n2nc(CN3CCN(c4ccc(Cl)cc4)CC3)nc2n1 | low band
CCOc1ncccc1CNC(=O)c1ccc2nc[nH]c2c1 | low band
COCCCn1c(=O)c2ccccc2n(Cc2nc(-c3ccc(C)cc3)no2)c1=O | high band
Cc1ccc(-c2noc(Cc3nnc(-c4cccc(Cl)c4)o3)n2)cc1C | high band
CCn1cc(-c2nc(CC(=O)NCc3cccc(C)c3)cs2)c2cccnc21 | high band
COc1ccc(Cl)cc1S(=O)(=O)N1CCC(C(=O)NCCc2ccccc2)CC1 | high band
CCCn1c(CCNC(=O)c2ccc(Cl)cc2)nc2cccnc21 | middle band
O=C(CCc1nc(-c2ccc(N3CCCC3)cc2)no1)NCCCN1CCOCC1 | low band
CC(C)(C)NC(=O)N1CCC(CNC(=O)c2ccccn2)CC1 | low band
COc1ccc(NC(=O)CSc2nc3nc(C)cc(C)n3n2)cc1OC | low band
CCn1cc(S(=O)(=O)Nc2ccc(C)cc2F)c2cccnc21 | high band
CCOc1nc2ccccc2nc1N1CCCC(C(=O)Nc2cc(C)c(Cl)cc2OC)C1 (centres undefined) | high band
CCn1c(-c2nonc2N)nc2c(C#CC(C)(C)O)ncc(OC[C@H]3CCCNC3)c21 | low band
CCn1cc(C(=O)Nc2ccccc2C)c(=O)c2ccc(C)nc21 | high band
CCC(C)NC(=O)c1cc(C)nc2ccc(Cl)cc12 (centres undefined) | middle band

src = the METLIN SMRT retention time set (Domingo-Almenara et al. 2019)
